System: 217524-143-R1-J4-PDC spheroids with HUVEC/MSC, viability;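 also: spheroids exposed to agents for seven days before reading; 100% = DMSO vehicle control viability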
test details: Anticancer human tumor 217524-143-R1-J4-PDC patient-derived pancreatic carcinoma cell line growth inhibition [CLK]
cond: second compound 1 µM; first compound 1 µM; active compounds read low
reported property: viability, T/C

INSERT INTO results (compound, reported_property, value_observed) VALUES
  ('C#Cc1c(F)ccc2cc(O)cc(-c3ncc4c(N5CC6CCC(C5)N6)nc(OCC56CCCN5CC(F)C6)nc4c3F)c12 (stereo unspecified) + CNC(=O)c1ccc(Nc2nc(OC3CCCC3)c3c(-c4ccc5nc(C)oc5c4)c[nH]c3n2)c(OC)c1', 'viability, T/C', '35.5%'),
  ('Nc1ccn(C2OC(CO)C(O)C2(F)F)c(=O)n1 (stereo unspecified) + CNC(=O)c1ccc(Nc2nc(OC3CCCC3)c3c(-c4ccc5nc(C)oc5c4)c[nH]c3n2)c(OC)c1', 'viability, T/C', '19.9%'),
  ('O=c1[nH]cc(F)c(=O)[nH]1 + CNC(=O)c1ccc(Nc2nc(OC3CCCC3)c3c(-c4ccc5nc(C)oc5c4)c[nH]c3n2)c(OC)c1', 'viability, T/C', '21.9%'),
  ('CCc1c2c(nc3ccc(O)cc13)-c1cc3c(c(=O)n1C2)COC(=O)[C@]3(O)CC + CN1CCN(c2cc(C(=O)Nc3cc4cc(-c5cnn(C)c5)ccc4cn3)ccn2)CC1', 'viability, T/C', '2.32%');

Please give measured viability, T/C of the following entry: COC1C=CCC(C)C(C)S(=O)(=O)NC(=O)c2ccc3c(c2)N(CC2CCC21)CC1(CCCc2cc(Cl)ccc21)CO3 (stereo unspecified) + CN1CCN(c2cc(C(=O)Nc3cc4cc(-c5cnn(C)c5)ccc4cn3)ccn2)CC1
1.6%

Read off the recorded viability, T/C for COc1ccc([C@@H](O)c2cc(-c3ncnc4cc(N5CCOCC5)ccc34)c(F)cc2Cl)nn1 + CN1CCN(c2cc(C(=O)Nc3cc4cc(-c5cnn(C)c5)ccc4cn3)ccn2)CC1
0.93%
